Reported values of Stability Index for individual entries
experimental target: T1, recombinant human Tau monomer, 2N4R isoform (amino acids 2-441) (human, UniProt P10636-8 2-441)
T1 construct: range 2-441; N-terminal His-tag removed with TEV protease; also called monomeric Tau
T1 sequence (P10636 other isoform, or with tags, fused parts or gaps limits assumed): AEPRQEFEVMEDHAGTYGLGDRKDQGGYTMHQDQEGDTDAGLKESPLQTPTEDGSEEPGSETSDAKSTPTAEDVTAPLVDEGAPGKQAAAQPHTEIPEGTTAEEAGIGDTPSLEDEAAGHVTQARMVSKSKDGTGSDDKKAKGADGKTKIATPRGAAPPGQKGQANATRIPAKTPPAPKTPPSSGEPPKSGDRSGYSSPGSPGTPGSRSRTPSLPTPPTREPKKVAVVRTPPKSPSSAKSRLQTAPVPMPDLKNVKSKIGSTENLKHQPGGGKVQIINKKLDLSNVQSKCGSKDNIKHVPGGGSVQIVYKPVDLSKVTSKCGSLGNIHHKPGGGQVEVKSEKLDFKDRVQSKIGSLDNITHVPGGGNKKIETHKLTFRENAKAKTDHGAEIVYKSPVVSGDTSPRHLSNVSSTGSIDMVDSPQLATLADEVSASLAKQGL
procedure details: SPR; Normalized Rmax post-stress (2 weeks 40 C) / pre-stress
Form entry: enter the amount, then its unit.

Consider the worked cases shown below.
binder	Stability Index
hu37D3.v28.A8 (antibody, V domains shown) VH: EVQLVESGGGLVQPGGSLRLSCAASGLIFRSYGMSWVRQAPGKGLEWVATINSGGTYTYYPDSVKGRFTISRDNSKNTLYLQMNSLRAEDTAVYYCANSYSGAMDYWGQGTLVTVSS VL: DDVMTQTPLSLPVTPGQPASISCRSSQSIVHSNGNTYFEWYLQKPGQSPQLLIYKVSNRFSGVPDRFSGSGSGTDFTLKISRVEAEDVGVYYCFQGSLVPWTFGQGTKVEIK	57%
hu37D3.v28.53 (antibody, V domains shown) VH: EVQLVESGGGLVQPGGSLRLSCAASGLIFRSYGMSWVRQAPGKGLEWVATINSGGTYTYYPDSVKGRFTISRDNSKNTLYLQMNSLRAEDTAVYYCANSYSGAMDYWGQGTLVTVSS VL: EDVLTQTPLSLPVTPGQPASISCRSSQSIVHSRGNTYFEWYLQKPGQSPQLLIYKVSNRFSGVPDRFSGSGSGTDFTLKISRVEAEDVGVYYCFQGSLVPWTFGQGTKVEIK	76%
hu37D3.v28.B8 (antibody, V domains shown) VH: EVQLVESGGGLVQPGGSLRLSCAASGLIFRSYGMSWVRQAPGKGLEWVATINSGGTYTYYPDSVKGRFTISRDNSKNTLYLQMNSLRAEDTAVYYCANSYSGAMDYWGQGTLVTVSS VL: DDVLTQTPLSLPVTPGQPASISCRSSQSIVHSEGNTRFEWYLQKPGQSPQLLIYKVSNRFSGVPDRFSGSGSGTDFTLKISRVEAEDVGVYYCFQGSLVPWTFGQGTKVEIK	456%
hu37D3-H9.v5.7 (antibody, V domains shown) VH: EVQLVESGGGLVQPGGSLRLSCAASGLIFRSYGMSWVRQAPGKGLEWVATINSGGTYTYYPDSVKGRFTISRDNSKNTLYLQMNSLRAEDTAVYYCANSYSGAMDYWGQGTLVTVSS VL: EDVLTQTPLSLPVTPGQPASISCRSSQSIVHSNGDTYFEWYLQKPGQSPQLLIYKVSNRFSGVPDRFSGSGSGTDFTLKISRVEAEDVGVYYCFQGSLVPWTFGQGTKVEIK	67%
hu37D3-H9.v30.8 (antibody, V domains shown) VH: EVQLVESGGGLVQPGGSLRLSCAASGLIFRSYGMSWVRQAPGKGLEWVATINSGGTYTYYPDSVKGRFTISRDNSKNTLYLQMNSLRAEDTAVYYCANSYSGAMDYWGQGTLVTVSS VL: DDVLTQTPLSLPVTPGQPASISCRSSQSIVHSYGNTYFEWYLQKPGQSPQLLIYKVSNRFSGVPDRFSGSGSGTDFTLKISRVEAEDVGVYYCFQGSLVPWTFGQGTKVEIK	105%

So for hu37D3.v28.E1 (antibody, V domains shown) VH: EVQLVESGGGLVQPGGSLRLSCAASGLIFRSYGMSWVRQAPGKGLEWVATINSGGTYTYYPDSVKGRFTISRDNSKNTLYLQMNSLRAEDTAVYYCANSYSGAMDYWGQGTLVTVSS VL: DDVLTQTPLSLPVTPGQPASISCRSSQSIVNSNGNTYFEWYLQKPGQSPQLLIYKVSNRFSGVPDRFSGSGSGTDFTLKISRVEAEDVGVYYCFQGSLVPWTFGQGTKVEIK , the logged Stability Index turned out to be 46%

So for hu37D3.v28.A10 (antibody, V domains shown) VH: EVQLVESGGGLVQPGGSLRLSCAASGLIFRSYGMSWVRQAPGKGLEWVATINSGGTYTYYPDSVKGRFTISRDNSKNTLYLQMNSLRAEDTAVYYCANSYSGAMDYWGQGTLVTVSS VL: DDVMTQTPLSLPVTPGQPASISCRSSQSIVHSNGNTYFEWYLQKPGQSPQLLIYKVSNRFSGVPDRFSGSGSGTDFTLKISRVEAEDVGVYYCFQGSHVPWTFGQGTKVEIK , the logged Stability Index turned out to be 37%
